Target: CYP2B6 (Homo sapiens, UniProt P20813)
Sequence (P20813 whole entry): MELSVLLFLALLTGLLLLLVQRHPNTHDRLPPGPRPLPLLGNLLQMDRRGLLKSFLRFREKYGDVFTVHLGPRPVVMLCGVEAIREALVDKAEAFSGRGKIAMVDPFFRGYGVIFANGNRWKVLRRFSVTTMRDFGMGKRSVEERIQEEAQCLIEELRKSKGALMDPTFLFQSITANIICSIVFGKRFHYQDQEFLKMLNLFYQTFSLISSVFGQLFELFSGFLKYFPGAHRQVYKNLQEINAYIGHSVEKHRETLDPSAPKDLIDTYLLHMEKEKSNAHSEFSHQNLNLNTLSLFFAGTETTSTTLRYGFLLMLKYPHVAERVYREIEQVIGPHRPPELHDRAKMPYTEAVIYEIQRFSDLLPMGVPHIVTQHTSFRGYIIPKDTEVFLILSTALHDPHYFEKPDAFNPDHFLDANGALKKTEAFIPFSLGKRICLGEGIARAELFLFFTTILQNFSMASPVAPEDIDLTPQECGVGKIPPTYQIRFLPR
Test: Inhibition of CYP2B6 in human liver microsomes at 20 uM incubated for 60 mins by HPLC analysis relative to control
Type: ADME
The entries below come with measured inhibition at 1 h, 20 µM values attached.
Number only, in %; omit the unit.

Solved entries:
CC#Cc1nnn(Cc2ccc(C(F)(F)F)cc2)c1C(=O)N[C@@H](C)c1ccc(C(=O)O)cc1 : 34
C[C@H](NC(=O)c1c(-c2ccccc2)nnn1CCOc1cccc(C(F)(F)F)c1)c1ccc(C(=O)O)cc1 : 51
C[C@H](NC(=O)c1c(-c2ccsc2)nnn1Cc1ccc(C(F)(F)F)cc1)c1ccc(C(=O)O)cc1 : 28
C[C@H](NC(=O)c1c(C(F)F)nn(C)c1Oc1cccc(C(F)(F)F)c1)c1ccc(C(=O)O)cc1 [PALUPIPRANT] : 23

# get_value(readout= inhibition at 1 h, 20 µM, system= CYP2B6 (Homo sapiens, UniProt P20813)) for `C/C=C/c1nnn(Cc2ccc(C(F)(F)F)cc2)c1C(=O)N[C@@H](C)c1ccc(C(=O)O)cc1`
26

###

Molecular target: CYP2D6 (Homo sapiens)
Sequence (P10635 whole entry): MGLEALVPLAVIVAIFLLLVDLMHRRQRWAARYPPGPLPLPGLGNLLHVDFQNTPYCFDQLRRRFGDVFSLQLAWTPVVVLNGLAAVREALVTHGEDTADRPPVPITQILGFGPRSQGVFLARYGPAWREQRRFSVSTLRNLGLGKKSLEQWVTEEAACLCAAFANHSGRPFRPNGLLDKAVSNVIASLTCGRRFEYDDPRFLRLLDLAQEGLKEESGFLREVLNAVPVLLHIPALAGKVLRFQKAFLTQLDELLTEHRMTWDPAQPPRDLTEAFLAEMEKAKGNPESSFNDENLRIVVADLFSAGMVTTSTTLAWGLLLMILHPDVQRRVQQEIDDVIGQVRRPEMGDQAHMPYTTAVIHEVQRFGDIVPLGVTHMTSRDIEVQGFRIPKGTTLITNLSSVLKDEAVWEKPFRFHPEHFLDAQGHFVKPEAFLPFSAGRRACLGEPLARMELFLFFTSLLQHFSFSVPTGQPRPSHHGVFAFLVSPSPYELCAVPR
Assay: Inhibition of CYP2D6 in human liver microsomes at 20 uM using dextromethorphan as substrate incubated for 60 mins by HPLC analysis relative to control
Format: ADME
Conditions: probe dextromethorphan
Metric name: inhibition at 1 h, 20 µM (%)
State the answer as a number, implicitly in %.

Some entries whose results are on file:
C[C@H](NC(=O)c1c(-c2ccccc2)nnn1CCOc1cccc(C(F)(F)F)c1)c1ccc(C(=O)O)cc1 : 30
C[C@H](NC(=O)c1c(-c2ccsc2)nnn1Cc1ccc(C(F)(F)F)cc1)c1ccc(C(=O)O)cc1 : 25
CC#Cc1nnn(Cc2ccc(C(F)(F)F)cc2)c1C(=O)N[C@@H](C)c1ccc(C(=O)O)cc1 : 38
C/C=C/c1nnn(Cc2ccc(C(F)(F)F)cc2)c1C(=O)N[C@@H](C)c1ccc(C(=O)O)cc1 : 23

Now examine the next entry.
# inhibition at 1 h, 20 µM lookup, item C[C@H](NC(=O)c1c(C(F)F)nn(C)c1Oc1cccc(C(F)(F)F)c1)c1ccc(C(=O)O)cc1 [PALUPIPRANT]
35

###

# key: entry, value: remaining at 1 h, 10 µM
Assay: Metabolic stability in CD1 mouse liver microsomes assessed as compound remaining at 10 uM incubated for 1 hr
Report the value in % with no unit label.

I would be grateful if you could share the reported remaining at 1 h, 10 µM for `C/C=C/c1nnn(Cc2ccc(C(F)(F)F)cc2)c1C(=O)N[C@@H](C)c1ccc(C(=O)O)cc1` .
82

Would you kindly repeat that for `C[C@H](NC(=O)c1c(-c2ccsc2)nnn1Cc1ccc(C(F)(F)F)cc1)c1ccc(C(=O)O)cc1` ?
75.5

###

The following molecules are listed with their measured Cmax at 24 h values.
Experiment: in vivo
Details: BALB/c, mouse, po, 5 mg/kg
Description: Cmax in BALB/c mouse at 5 mg/kg, po measured upto 24 hrs by LC-MS/MS analysis

C/C=C/c1nnn(Cc2ccc(C(F)(F)F)cc2)c1C(=O)N[C@@H](C)c1ccc(C(=O)O)cc1 : 194 ng/mL

What does the record list as Cmax at 24 h for `C[C@H](NC(=O)c1c(-c2ccsc2)nnn1Cc1ccc(C(F)(F)F)cc1)c1ccc(C(=O)O)cc1` ?
365 ng/mL

###

Experiment: in vitro
Conditions: CD1, mouse, liver microsomes
Metric name: half-life at 1 h, 10 µM (min)
API: value field is a number in min; no unit string.

C[C@]12CC[C@H]3[C@@H](CCC4=CC(=O)CC[C@@]43C)[C@@H]1CC[C@@H]2O : 2.9

# input for lookup
Would you kindly share the measured half-life at 1 h, 10 µM for `O=C(O)Cc1ccccc1Nc1c(Cl)cccc1Cl` ?
53.6

###

Measured Vd at 24 h of individual entries
Assay: Volume of distribution at steady state in BALB/c mouse at 1 mg/kg, iv measured upto 24 hrs by LC-MS/MS analysis
Details: in vivo
Field: numeric (L/kg). Do not append units.

C[C@H](NC(=O)c1c(-c2ccsc2)nnn1Cc1ccc(C(F)(F)F)cc1)c1ccc(C(=O)O)cc1 : 4

Consider now this further compound.
Please give the measured Vd at 24 h for this compound: `C/C=C/c1nnn(Cc2ccc(C(F)(F)F)cc2)c1C(=O)N[C@@H](C)c1ccc(C(=O)O)cc1`
4.4

###

pIC50: −log10 of the molar value.
Measured pIC50 on UniProt P35408 follows.
Sequence (P35408 whole entry): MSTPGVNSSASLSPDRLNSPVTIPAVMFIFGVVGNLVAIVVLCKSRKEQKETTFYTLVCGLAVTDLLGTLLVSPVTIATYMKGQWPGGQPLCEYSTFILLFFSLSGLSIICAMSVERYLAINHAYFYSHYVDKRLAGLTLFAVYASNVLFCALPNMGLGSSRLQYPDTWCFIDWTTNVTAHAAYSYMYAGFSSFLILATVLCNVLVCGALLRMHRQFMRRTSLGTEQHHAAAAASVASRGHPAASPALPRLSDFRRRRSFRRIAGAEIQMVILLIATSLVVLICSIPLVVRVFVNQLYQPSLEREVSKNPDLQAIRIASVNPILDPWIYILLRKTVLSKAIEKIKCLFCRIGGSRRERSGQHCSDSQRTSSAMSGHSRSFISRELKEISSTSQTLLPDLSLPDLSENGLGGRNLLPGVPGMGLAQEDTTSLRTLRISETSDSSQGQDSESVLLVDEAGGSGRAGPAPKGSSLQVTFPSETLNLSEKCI

Study these solved cases before continuing.
C/C=C/c1nnn(Cc2ccc(C(F)(F)F)cc2)c1C(=O)N[C@H](C)c1ccc(C(=O)O)cc1 : < 6.00
CCCc1c(C(=O)N[C@@H](C)c2ccc(C(=O)O)cc2)nnn1Cc1ccc(C(F)(F)F)cc1 : < 5.00
C[C@H](NC(=O)c1nnn(Cc2cccc(C(F)(F)F)c2)c1C(F)(F)F)c1ccc(C(=O)O)cc1 : < 5.00

Moving on to the next compound.
Tell me the measured pIC50 of `C[C@H](NC(=O)c1cnnn1Cc1ccc(C(F)(F)F)cc1)c1ccc(C(=O)O)cc1` , please.
< 5.00
